Provide the recorded Activity for the entries that follow.
molecular target: Growth hormone secretagogue receptor type 1 (Homo sapiens, UniProt Q92847); test: Agonist activity at human GHS-R1a assessed as maximum activation at 10 uM relative to ghrelin by aequorin assay; format: functional
Sequence (Q92847 whole entry): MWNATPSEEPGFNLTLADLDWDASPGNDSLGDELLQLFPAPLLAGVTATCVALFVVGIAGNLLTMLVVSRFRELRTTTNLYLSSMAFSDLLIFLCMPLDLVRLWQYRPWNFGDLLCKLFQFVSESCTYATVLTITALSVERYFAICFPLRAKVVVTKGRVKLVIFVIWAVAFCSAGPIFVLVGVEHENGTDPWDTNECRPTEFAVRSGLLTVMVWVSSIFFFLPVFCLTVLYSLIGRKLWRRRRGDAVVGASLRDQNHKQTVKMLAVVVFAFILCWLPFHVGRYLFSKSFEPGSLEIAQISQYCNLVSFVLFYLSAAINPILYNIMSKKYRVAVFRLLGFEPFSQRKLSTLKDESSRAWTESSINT

See these solved cases before continuing.
[
  {
    "Record smiles": "CCCCCCNC(=O)Nc1ccc(S(=O)(=O)Nc2cccc(CCN)c2)cc1",
    "Activity": "13%"
  },
  {
    "Record smiles": "CC(C)c1ccc(NC(=O)Nc2ccc(S(=O)(=O)Nc3ccc(CC(C)(C)N)cc3)cc2)cc1",
    "Activity": "0%"
  },
  {
    "Record smiles": "CCCCCCNC(=O)Nc1ccc(S(=O)(=O)Nc2ccc(CC(C)(C)N)cc2)cc1",
    "Activity": "4%"
  },
  {
    "Record smiles": "CCCCCNC(=O)Nc1ccc(S(=O)(=O)Nc2ccc(CC(C)(C)N)cc2)cc1",
    "Activity": "6%"
  },
  {
    "Record smiles": "CC(C)(N)Cc1ccc(NS(=O)(=O)c2ccc(NC(=O)NCCc3ccccc3)cc2)cc1",
    "Activity": "1%"
  }
]

I'm hoping you can list Activity for every molecule here, please.
1. CCCCCCNC(=O)Nc1ccc(S(=O)(=O)Nc2ccc(CN)cc2)cc1
2. CCCCCCNC(=O)Nc1ccc(S(=O)(=O)Nc2ccc(CC(C)(C)CN)cc2)cc1

5%
2%

Data provenance: ChEMBL document CHEMBL1154292
